Tested on: HCC 2998
Test: NCI tumour cell line growth inhibition, 48 h
The source made the active and inactive calls. Rule as the data show it: active = GI50 up to about 1.1 µM and inactive = higher.
Measured GI50 accompanies every entry in the list below.

                                   compound  recorded_measurement
0  COC1=NN2C(OC)(c3ccccc3)c3c(-c4ccccc4)sc(-c4ccccc4)c3C2(c2ccccc2)S1 (centres undefined)   > 100 µM (inactive)
1  O=[N+]([O-])c1cc(-c2nnc(C34CC5CC(CC(C5)C3)C4)o2)cc([N+](=O)[O-])c1    70.5 µM (inactive)
2  COc1ccc(/N=N/c2c(-c3ccccc3)nn(C(=O)CC(=O)Nc3ccccc3Cl)c2-c2ccccc2)cc1   > 100 µM (inactive)

[Q] Entry under review: C/C=C(/COC(C)=O)C(=O)OC1C=C(C=O)C(C)(C)C=C1C (centres undefined) . Reported GI50?
[A] > 100 µM (inactive)

[Q] Entry under review: N#Cc1ccc(Oc2ccccc2)cc1C#N . Reported GI50?
[A] > 100 µM (inactive)

[Q] Entry under review: Nc1ncnc2c1nc(Cl)n2C1OC2COP(=O)(O)OC2C1O (centres undefined) . Reported GI50?
[A] 38.9 µM (inactive)

[Q] Entry under review: COc1ccc(NC(=O)c2cc(OC)cc(OC)c2)cc1 . Reported GI50?
[A] 23 µM (inactive)

[Q] Entry under review: CN(CCn1cnc2c1c(=O)n(C)c(=O)n2C)C1CCCCC1 . Reported GI50?
[A] > 100 µM (inactive)

[Q] Entry under review: CCOC(=O)/C=C(\C(=O)OCC)n1ccc(=O)n(Cc2cnnn2COCCOC(C)=O)c1=O . Reported GI50?
[A] 17.9 µM (inactive)

[Q] Entry under review: COc1ccc2nc3ccc(OC)cc3c(SCCO)c2c1 . Reported GI50?
[A] > 75 µM (inactive)

[Q] Entry under review: CC(C)C1(O)C(c2ccccc2)=C(c2ccccc2)C(c2ccccc2)=C1c1ccccc1 . Reported GI50?
[A] 8.69 µM (inactive)

[Q] Entry under review: C=CC[C@H]1[C@@H](O[Si](C)(C)C(C)(C)C)[C@H](n2ccc(=O)[nH]c2=O)O[C@@H]1CO[Si](C)(C)C(C)(C)C . Reported GI50?
[A] 1.93 µM (inactive)

[Q] Entry under review: O=C(O)c1cc(O)c2c(c1)C([C@@H]1c3cccc(O)c3C(=O)c3c(O)cc(C(=O)O)cc31)c1cccc(O)c1C2=O (some centres undefined) . Reported GI50?
[A] 47.4 µM (inactive)
